Dear all, this message contains IC50 results, target or system Transporter (Macaca mulatta, UniProt Q7JHP9).
Report only the number, with the unit µM understood.

Here is how some molecules turned out for IC50.
INSERT INTO results (molecule, experimental_system, unit_name, endpoint_value) VALUES
  ('COC(=O)[C@@H]1C2CCC(C[C@@H]1c1ccc(Cl)c(F)c1)[S+]2[O-] (some centres not stated)', 'Transporter (Macaca mulatta, UniProt Q7JHP9)', 'µM', 0.014),
  ('COC(=O)[C@@H]1C2CCC(C[C@@H]1c1ccc3ccccc3c1)S2 (some centres not stated)', 'Transporter (Macaca mulatta, UniProt Q7JHP9)', 'µM', 0.016),
  ('COC(=O)[C@@H]1C2CCC(C[C@@H]1c1ccc(I)cc1)S2 (some centres not stated)', 'Transporter (Macaca mulatta, UniProt Q7JHP9)', 'µM', 0.014);

Next, consider the following molecule.
*Q* Request: IC50, test system Transporter (Macaca mulatta, UniProt Q7JHP9), entry COC(=O)[C@@H]1C2CCC(C[C@@H]1c1ccc(Cl)cc1)S2 (some centres not stated)
*A* 0.0096

====

- EXPERIMENTAL_SYSTEM: Sodium-dependent serotonin transporter (Macaca mulatta)
- Sequence (Q9MYX0 whole entry): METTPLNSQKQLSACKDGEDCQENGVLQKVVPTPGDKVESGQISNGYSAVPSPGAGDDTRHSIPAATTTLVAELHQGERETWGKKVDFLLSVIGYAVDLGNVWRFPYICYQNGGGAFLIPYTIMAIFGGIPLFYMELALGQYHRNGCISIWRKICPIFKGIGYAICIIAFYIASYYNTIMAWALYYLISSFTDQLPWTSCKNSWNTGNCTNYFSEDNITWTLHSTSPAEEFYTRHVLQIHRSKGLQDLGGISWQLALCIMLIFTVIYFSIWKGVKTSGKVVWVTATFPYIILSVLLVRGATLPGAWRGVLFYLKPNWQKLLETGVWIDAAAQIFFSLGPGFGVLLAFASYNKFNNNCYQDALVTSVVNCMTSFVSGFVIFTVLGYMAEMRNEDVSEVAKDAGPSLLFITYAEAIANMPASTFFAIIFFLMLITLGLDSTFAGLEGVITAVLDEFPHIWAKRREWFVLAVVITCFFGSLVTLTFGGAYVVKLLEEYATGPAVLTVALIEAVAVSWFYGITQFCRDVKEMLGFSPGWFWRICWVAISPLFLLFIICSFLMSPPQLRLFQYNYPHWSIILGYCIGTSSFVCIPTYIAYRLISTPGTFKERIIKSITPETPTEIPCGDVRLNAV
Parameter: IC50. Scope: all listed entries.
Report only the number, with the unit nM understood.

Here is how some compounds turned out for IC50.
INSERT INTO measurements (compound, experimental_system, readout, endpoint_value) VALUES
  ('COC(=O)[C@@H]1C2CCC(C[C@H]1c1ccc(Br)cc1)S2 (some centres undefined)', 'Sodium-dependent serotonin transporter (Macaca mulatta)', 'IC50', 342),
  ('COC(=O)[C@@H]1C2CCC(C[C@@H]1c1ccc(F)c(Cl)c1)S2 (some centres undefined)', 'Sodium-dependent serotonin transporter (Macaca mulatta)', 'IC50', 370),
  ('COC(=O)[C@@H]1C2CCC(C[C@H]1c1ccc(Cl)c(Cl)c1)O2 (some centres undefined)', 'Sodium-dependent serotonin transporter (Macaca mulatta)', 'IC50', 64.5);

Next, consider the following compound.
*Q* I have this compound here, COC(=O)[C@@H]1C2CCC(C2)C[C@@H]1c1ccc(Cl)c(Cl)c1 (some centres undefined) , and I need its recorded IC50.
*A* 33

====

- Species: Macaca mulatta
- METHOD_NOTES: Selectivity for rhesus monkey DAT over rhesus monkey SERT
READOUT: Ratio IC50

INSERT INTO measurements (compound, endpoint_value) VALUES
  ('COC(=O)[C@@H]1C2CCC(C[C@H]1c1ccc(Cl)cc1)S2 (stereo partly drawn)', '> 91'),
  ('COC(=O)[C@@H]1C2CCC(C[C@H]1c1ccc(Cl)c(Cl)c1)[S+]2[O-] (stereo partly drawn)', '> 346');

Next, consider the following compound.
*Q* I have this compound here, COC(=O)C1=C(c2ccc(F)c(F)c2)CC2CCC1S2 (stereo not drawn) , and I need its recorded Ratio IC50.
*A* > 133

====

- Species: Macaca mulatta
- METHOD_NOTES: Selectivity for rhesus monkey DAT over rhesus monkey SERT
Consider the following partition of reported Ratio IC50 into named classes: low bracket: < 8; middle bracket: ≥ 8 and < 70; high bracket: ≥ 70

Recorded results for 5 molecules are shown here.
INSERT INTO results (molecule, assigned_label) VALUES
  ('COC(=O)C1=C(c2ccc(F)c(Cl)c2)CC2CCC1S2 (centres undefined)', 'high bracket'),
  ('COC(=O)[C@@H]1C2CCC(C[C@H]1c1ccc(Cl)c(F)c1)[S+]2[O-] (some centres undefined)', 'high bracket'),
  ('COC(=O)C1=C(c2ccc(Cl)c(Cl)c2)CC2CCC1S2 (centres undefined)', 'high bracket'),
  ('COC(=O)C1=C(c2ccc(F)cc2)CC2CCC1S2 (centres undefined)', 'high bracket'),
  ('COC(=O)[C@@H]1C2CCC(C[C@H]1c1ccc(Br)cc1)[S+]2[O-] (some centres undefined)', 'high bracket');

Could you now look at the following molecule, please?
*Q* Determine which band this molecule sits in: COC(=O)[C@@H]1C2CCC(C[C@H]1c1ccc(F)c(Cl)c1)[S+]2[O-] (some centres undefined)
*A* high bracket

====

Parameter: IC50. Scope: all listed entries.
- EXPERIMENTAL_SYSTEM: Transporter (Macaca mulatta, UniProt Q7JHP9)
- Sequence (Q7JHP9 whole entry): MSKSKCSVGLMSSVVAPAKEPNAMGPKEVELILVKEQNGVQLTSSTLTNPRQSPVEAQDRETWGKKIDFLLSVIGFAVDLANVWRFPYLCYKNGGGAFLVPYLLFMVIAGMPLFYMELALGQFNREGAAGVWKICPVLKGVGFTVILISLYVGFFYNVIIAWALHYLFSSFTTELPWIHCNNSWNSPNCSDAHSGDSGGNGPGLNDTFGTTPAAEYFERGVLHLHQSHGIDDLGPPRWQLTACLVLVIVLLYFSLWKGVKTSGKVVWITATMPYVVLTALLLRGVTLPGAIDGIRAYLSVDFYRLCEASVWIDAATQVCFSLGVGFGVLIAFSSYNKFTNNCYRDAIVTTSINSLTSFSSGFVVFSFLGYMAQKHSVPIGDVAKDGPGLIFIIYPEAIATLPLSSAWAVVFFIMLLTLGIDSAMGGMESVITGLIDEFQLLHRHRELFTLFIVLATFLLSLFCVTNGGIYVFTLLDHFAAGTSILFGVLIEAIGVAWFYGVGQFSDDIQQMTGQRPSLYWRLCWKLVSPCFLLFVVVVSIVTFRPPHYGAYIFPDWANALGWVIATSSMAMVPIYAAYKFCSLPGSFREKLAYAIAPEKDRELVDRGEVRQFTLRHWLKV
Report only the number, with the unit nM understood.

INSERT INTO measurements (compound, endpoint_value) VALUES
  ('COC(=O)C1=C(c2ccc(Cl)c(Cl)c2)CC2C[C@@H](O)[C@@H]1N2C', 265),
  ('COC(=O)[C@@H]1C2CCC(C[C@H]1c1ccc(Cl)c(F)c1)S2 (stereo partly drawn)', 7);

Next, consider the following compound.
*Q* Request: IC50, test system Transporter (Macaca mulatta, UniProt Q7JHP9), entry COC(=O)[C@@H]1C2CCC(C[C@H]1c1ccc(Cl)c(Cl)c1)[S+]2[O-] (stereo partly drawn)
*A* 7.8

====

pIC50: −log10 of the molar value.
Dear all, this message contains pIC50 results, target or system Sodium-dependent serotonin transporter (Macaca mulatta, UniProt Q9MYX0).

Here is how some compounds turned out for pIC50.
INSERT INTO assay_data (compound, experimental_system, readout, endpoint_value) VALUES
  ('COC(=O)C1=C(c2ccc(Cl)c(F)c2)CC2CCC1S2 (stereo not given)', 'Sodium-dependent serotonin transporter (Macaca mulatta, UniProt Q9MYX0)', 'pIC50', '< 4.30'),
  ('COC(=O)[C@@H]1C2CCC(C[C@H]1c1ccc(F)c(Cl)c1)[S+]2[O-] (stereo not given in full)', 'Sodium-dependent serotonin transporter (Macaca mulatta, UniProt Q9MYX0)', 'pIC50', '< 4.51'),
  ('COC(=O)[C@@H]1C2CCC(C[C@H]1c1ccccc1)S2 (stereo not given in full)', 'Sodium-dependent serotonin transporter (Macaca mulatta, UniProt Q9MYX0)', 'pIC50', '< 5.10'),
  ('COC(=O)C1=C(c2ccc(Cl)c(Cl)c2)CC2CCC1S2 (stereo not given)', 'Sodium-dependent serotonin transporter (Macaca mulatta, UniProt Q9MYX0)', 'pIC50', '< 5.52');

Next, consider the following compound.
*Q* I have this compound here, COC(=O)[C@@H]1C2CCC(C[C@@H]1c1ccccc1)S2 (stereo not given in full) , and I need its recorded pIC50.
*A* < 5.52

====

- Species: Macaca mulatta
- METHOD_NOTES: Selectivity for rhesus monkey DAT over rhesus monkey SERT
Consider the following partition of reported Ratio IC50 into named classes: LOW (below 8), MEDIUM (8 to below 70), HIGH (70 or more)

Recorded results for 3 compounds are shown here.
INSERT INTO assay_data (compound, assigned_label) VALUES
  ('COC(=O)[C@@H]1[C@@H]2CCC(C[C@H]1c1ccc(Cl)c(Cl)c1)S2', 'MEDIUM'),
  ('COC(=O)[C@@H]1C2CCC(C[C@H]1c1ccc(Cl)c(F)c1)S2 (stereo partly drawn)', 'HIGH'),
  ('COC(=O)[C@@H]1[C@H]2CCC(C[C@H]1c1ccc(Cl)c(Cl)c1)O2', 'MEDIUM');

*Q* Determine which band this compound sits in: COC(=O)[C@@H]1C2CCC(C[C@@H]1c1ccc(F)c(Cl)c1)S2 (stereo partly drawn)
*A* MEDIUM

*Q* Determine which band this compound sits in: COC(=O)[C@@H]1C2CCC(C[C@H]1c1ccc(Cl)c(Cl)c1)S2 (stereo partly drawn)
*A* MEDIUM

*Q* Determine which band this compound sits in: COC(=O)[C@@H]1C2CCC(C[C@H]1c1ccc(F)c(F)c1)S2 (stereo partly drawn)
*A* HIGH

*Q* Determine which band this compound sits in: COC(=O)[C@@H]1C2CCC(C[C@H]1c1ccc3ccccc3c1)S2 (stereo partly drawn)
*A* LOW

*Q* Determine which band this compound sits in: COC(=O)[C@@H]1C2CCC(C[C@@H]1c1ccc(Cl)c(F)c1)[S+]2[O-] (stereo partly drawn)
*A* HIGH

*Q* Determine which band this compound sits in: `COC(=O)[C@@H]1[C@@H]2CCC(C[C@H]1c1ccc(Cl)c(Cl)c1)O2`
*A* MEDIUM

*Q* Determine which band this compound sits in: COC(=O)[C@@H]1C2CCC(C2)C[C@@H]1c1ccc(Cl)c(Cl)c1 (stereo partly drawn)
*A* LOW

*Q* Determine which band this compound sits in: `COC(=O)[C@@H]1[C@@H]2CCC(C[C@@H]1c1ccc(Cl)c(Cl)c1)S2`
*A* LOW

*Q* Determine which band this compound sits in: COC(=O)C1=C(c2ccc(Cl)c(Cl)c2)CC2CCC1C2 (stereo not drawn)
*A* HIGH

*Q* Determine which band this compound sits in: COC(=O)[C@@H]1C2CCC(C[C@@H]1c1ccc(I)cc1)S2 (stereo partly drawn)
*A* LOW

====

- EXPERIMENTAL_SYSTEM: Transporter (Macaca mulatta)
Consider the following partition of reported IC50 into named classes: low end: < 7 nM; middle: ≥ 7 nM and < 20 nM; high end: ≥ 20 nM

*Q* Determine which band this molecule sits in: `COC(=O)C1=C(c2ccc(Cl)c(Cl)c2)CC2CC[C@H]1O2`
*A* low end

*Q* Determine which band this molecule sits in: COC(=O)C1=C(c2ccc(Cl)c(Cl)c2)CC2CCC1O2 (stereo not given)
*A* middle

*Q* Determine which band this molecule sits in: `COC(=O)[C@@H]1[C@H]2CCC(C[C@H]1c1ccc(Cl)c(Cl)c1)S2`
*A* low end

*Q* Determine which band this molecule sits in: COC(=O)[C@@H]1C2CCC(C[C@H]1c1ccc(Cl)c(F)c1)[S+]2[O-] (stereo not given in full)
*A* middle

*Q* Determine which band this molecule sits in: COC(=O)[C@@H]1C2CCC(C[C@H]1c1ccccc1)S2 (stereo not given in full)
*A* high end

*Q* Determine which band this molecule sits in: COC(=O)C1=C(c2ccccc2)CC2CCC1S2 (stereo not given)
*A* high end

*Q* Determine which band this molecule sits in: COC(=O)[C@@H]1C2CCC(C2)C[C@H]1c1ccc(Cl)c(Cl)c1 (stereo not given in full)
*A* middle

*Q* Determine which band this molecule sits in: `COC(=O)[C@@H]1[C@@H]2CCC(C[C@@H]1c1ccc(Cl)c(Cl)c1)O2`
*A* high end

*Q* Determine which band this molecule sits in: COC(=O)[C@@H]1C2CCC(C[C@@H]1c1ccc(Br)cc1)S2 (stereo not given in full)
*A* low end

*Q* Determine which band this molecule sits in: COC(=O)[C@@H]1C2CCC(C2)C[C@@H]1c1ccc(Cl)c(Cl)c1 (stereo not given in full)
*A* middle
